Reference source: paper doi:10.1101/2025.06.07.658027v2

Biological target: AalbOR2 (Aedes albopictus)
Sequence (A0ABM1YVB6 1-376): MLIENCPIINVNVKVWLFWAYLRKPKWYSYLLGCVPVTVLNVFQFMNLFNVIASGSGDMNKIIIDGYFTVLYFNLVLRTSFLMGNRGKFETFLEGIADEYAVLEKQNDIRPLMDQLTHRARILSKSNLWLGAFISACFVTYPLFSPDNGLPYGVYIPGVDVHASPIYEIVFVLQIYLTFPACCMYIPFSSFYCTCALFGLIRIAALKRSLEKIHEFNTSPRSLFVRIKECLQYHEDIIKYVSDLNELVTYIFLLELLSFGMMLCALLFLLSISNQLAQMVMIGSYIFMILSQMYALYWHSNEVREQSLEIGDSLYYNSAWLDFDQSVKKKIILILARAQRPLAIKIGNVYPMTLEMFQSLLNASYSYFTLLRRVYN
Sequence (A0ABM1ZN50 1-479 partner): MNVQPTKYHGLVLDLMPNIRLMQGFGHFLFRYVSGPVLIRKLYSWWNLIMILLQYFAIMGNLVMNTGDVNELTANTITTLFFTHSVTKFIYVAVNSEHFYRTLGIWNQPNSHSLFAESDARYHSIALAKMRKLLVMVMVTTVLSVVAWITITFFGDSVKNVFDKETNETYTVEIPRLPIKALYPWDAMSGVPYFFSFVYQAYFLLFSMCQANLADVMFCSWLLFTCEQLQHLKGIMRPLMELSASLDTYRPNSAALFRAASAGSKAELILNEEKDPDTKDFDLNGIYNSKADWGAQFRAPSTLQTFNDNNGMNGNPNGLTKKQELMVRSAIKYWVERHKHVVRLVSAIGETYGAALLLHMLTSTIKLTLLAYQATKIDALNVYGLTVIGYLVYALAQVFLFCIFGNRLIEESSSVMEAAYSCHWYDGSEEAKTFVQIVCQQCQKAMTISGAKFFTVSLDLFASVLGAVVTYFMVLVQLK
Test: two-electrode voltage clamp, Xenopus oocytes
MEASURED QUANTITY: EC50 (µM)
Supply the numeric figure in µM, leaving out any unit text.

COMPOUND	UNITS OF MEASURE	EC50
c1ccc2[nH]ccc2c1 [indole]	µM	0.77

[ask] GET EC50 | system: AalbOR2 (Aedes albopictus) | item: Cc1c[nH]c2ccccc12 [skatole]
[reply] 10.1
